src = patent US20180250358A1

# system.tested: T1, GHRH receptor of human pituitary membranes (human, UniProt Q02643)
# T1 sequence: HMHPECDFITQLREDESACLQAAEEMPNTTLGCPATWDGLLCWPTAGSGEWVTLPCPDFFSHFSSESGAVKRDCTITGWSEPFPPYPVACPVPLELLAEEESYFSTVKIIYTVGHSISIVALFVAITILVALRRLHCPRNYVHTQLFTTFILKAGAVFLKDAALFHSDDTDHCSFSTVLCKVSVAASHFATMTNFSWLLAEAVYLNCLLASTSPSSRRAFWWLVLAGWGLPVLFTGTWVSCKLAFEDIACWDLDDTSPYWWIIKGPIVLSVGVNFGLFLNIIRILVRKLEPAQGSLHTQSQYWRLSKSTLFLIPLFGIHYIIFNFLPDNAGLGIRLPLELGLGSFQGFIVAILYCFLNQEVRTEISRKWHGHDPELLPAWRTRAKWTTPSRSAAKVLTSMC
# protocol: competition vs 125I-[His1,Nle27]hGHRH(1-32)NH2, human pituitary membranes
Non-standard residues stand in square brackets, D forms with d. No end group written: not given here. *: point of attachment. Phe(F5) = N[C@@H](Cc1c(F)c(F)c(F)c(F)c1F)C(=O)O; NMeY = CN[C@@H](Cc1ccc(O)cc1)C(=O)O; Agmatine = N=C(N)NCCCCN*; Nle = CCCC[C@H](N)C(=O)O; Orn = NCCC[C@H](N)C(=O)O; Abu = CC[C@H](N)C(=O)O
quantity.measured: relative affinity (binding potency) compared to JI-38

| binder | measured |
| --- | --- |
| [NMeY][dA]DAIFTQSYR[Orn]VL[Abu]QLSAR[Orn]LLQDI[Nle]DR-NHEt [P-28420 [N-Me-Tyr^1, D-Ala^2, Gln^8, Orn^12, Abu^15, Orn^21, Nle^27, Asp^28]hGHRH(1-29)NH-CH2-CH3] | 1.01 vs JI-38=1 |
| [NMeY]ADAIFTQSYR[Orn]VL[Abu]QLSAR[Orn]LLQDI[Nle]SR-NHMe [P-27405 [N-Me-Tyr^1, Gln^8, Orn^12, Abu^15, Orn^21, Nle^27]hGHRH(1-29)NH-CH3] | 1.09 vs JI-38=1 |
| [NMeY][dA]DAIFTNSYR[Orn]VL[Abu]QLSAR[Orn]LLQDI[Nle]D[Agmatine] [P-20367 [N-Me-Tyr^1, D-Ala^2, Orn^12, Abu^15, Orn^21, Nle^27, Asp^28, Agm^29]hGHRH(1-29)NH2] | 2.51 vs JI-38=1 |
| [NMeY][dA]DAIFTTSYR[Orn]VL[Abu]QLSAR[Orn]LLQDI[Nle]DR-NHMe [P-27410 [N-Me-Tyr^1, D-Ala^2, Thr^8, Orn^12, Abu^15, Orn^21, Nle^27, Asp^28]hGHRH(1-29)NH-CH3] | 2.14 vs JI-38=1 |
| YADAIFTNSYRKVLGQLSARKLLQDIMSRQ (Dat^1; D-Ala^2; Fpa5^6; Orn^12; Abu^15; Orn^21; Nle^27; Gab^30 (in place of Gln^30); C-terminal -NH2) [P-25502 [Dat^1, D-Ala^2, Fpa5^6, Orn^12, Abu^15, Orn^21, Nle^27, Gab^30]hGHRH(1-30)NH2] | 1.27 vs JI-38=1 |
| [NMeY][dA]DAIFTNSYR[Orn]VL[Abu]QLSAR[Orn]LLQDI[Nle]DR-NHMe [P-27409 [N-Me-Tyr^1, D-Ala^2, Orn^12, Abu^15, Orn^21, Nle^27, Asp^28]hGHRH(1-29)NH-CH3] | 2.71 vs JI-38=1 |
| [NMeY][dA]DAIFTNSYR[Orn]VL[Abu]QLSAR[Orn]LLQDI[Nle]DR-NHEt [P-28421 [N-Me-Tyr^1, D-Ala^2, Orn^12, Abu^15, Orn^21, Nle^27, Asp^28]hGHRH(1-29)NH-CH2-CH3] | 0.9 vs JI-38=1 |
| [NMeY]ADAIFTQSYR[Orn]VL[Abu]QLSAR[Orn]LLQDI[Nle]DR-NHMe [P-27406 [N-Me-Tyr^1, Gln^8, Orn^12, Abu^15, Orn^21, Nle^27, Asp^28]hGHRH(1-29)NH-CH3] | 2.95 vs JI-38=1 |
| [NMeY]ADAIFTQSYR[Orn]VL[Abu]QLSAR[Orn]LLQDI[Nle]D[Agmatine] [P-20356 [N-Me-Tyr^1, Gln^8, Orn^12, Abu^15, Orn^21, Nle^27, Asp^28, Agm^29]hGHRH(1-29)NH2] | 2.69 vs JI-38=1 |
| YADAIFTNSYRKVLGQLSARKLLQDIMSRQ (Dat^1; D-Abu^2; Orn^12; Abu^15; Orn^21; Nle^27; Gab^30 (in place of Gln^30); C-terminal -NH2) [P-25504 [Dat^1, D-Abu^2, Orn^12, Abu^15, Orn^21, Nle^27, Gab^30]hGHRH(1-30)NH2] | 0.96 vs JI-38=1 |
| [NMeY][dA]DAIFTQSYR[Orn]VL[Abu]QLSAR[Orn]LLQDI[Nle]DR-NHMe [P-27403 [N-Me-Tyr^1, D-Ala^2, Gln^8, Orn^12, Abu^15, Orn^21, Nle^27, Asp^28]hGHRH(1-29)NH-CH3] | 3.69 vs JI-38=1 |
| [NMeY][dA]DAIFTQSYR[Orn]VL[Abu]QLSAR[Orn]LLQDI[Nle]D[Agmatine] [P-20361 [N-Me-Tyr^1, D-Ala^2, Gln^8, Orn^12, Abu^15, Orn^21, Nle^27, Asp^28, Agm^29]hGHRH(1-29)NH2] | 2.3 vs JI-38=1 |
| [NMeY][dA]DAI[Phe(F5)]TNSYR[Orn]VL[Abu]QLSAR[Orn]LLQDI[Nle]DR-NHMe [P-27404 [N-Me-Tyr^1, D-Ala^2, Fpa5^6, Orn^12, Abu^15, Orn^21, Nle^27, Asp^28]hGHRH(1-29)NH-CH3] | 2.45 vs JI-38=1 |
